target: LRRK2 G2019S mutant kinase (Homo sapiens, UniProt Q5S007, G2019S); construct: GST; assay: LRRK2 G2019S LanthaScreen TR-FRET kinase assay; settings: LRRK2 G2019S GST-tagged protein, 75 nM Fluorescein-ERM (LRRKtide), 100 μM ATP, 1 hour at room temperature; read-out: IC50 (potency)
Sequence (Q5S007 whole entry G2019S): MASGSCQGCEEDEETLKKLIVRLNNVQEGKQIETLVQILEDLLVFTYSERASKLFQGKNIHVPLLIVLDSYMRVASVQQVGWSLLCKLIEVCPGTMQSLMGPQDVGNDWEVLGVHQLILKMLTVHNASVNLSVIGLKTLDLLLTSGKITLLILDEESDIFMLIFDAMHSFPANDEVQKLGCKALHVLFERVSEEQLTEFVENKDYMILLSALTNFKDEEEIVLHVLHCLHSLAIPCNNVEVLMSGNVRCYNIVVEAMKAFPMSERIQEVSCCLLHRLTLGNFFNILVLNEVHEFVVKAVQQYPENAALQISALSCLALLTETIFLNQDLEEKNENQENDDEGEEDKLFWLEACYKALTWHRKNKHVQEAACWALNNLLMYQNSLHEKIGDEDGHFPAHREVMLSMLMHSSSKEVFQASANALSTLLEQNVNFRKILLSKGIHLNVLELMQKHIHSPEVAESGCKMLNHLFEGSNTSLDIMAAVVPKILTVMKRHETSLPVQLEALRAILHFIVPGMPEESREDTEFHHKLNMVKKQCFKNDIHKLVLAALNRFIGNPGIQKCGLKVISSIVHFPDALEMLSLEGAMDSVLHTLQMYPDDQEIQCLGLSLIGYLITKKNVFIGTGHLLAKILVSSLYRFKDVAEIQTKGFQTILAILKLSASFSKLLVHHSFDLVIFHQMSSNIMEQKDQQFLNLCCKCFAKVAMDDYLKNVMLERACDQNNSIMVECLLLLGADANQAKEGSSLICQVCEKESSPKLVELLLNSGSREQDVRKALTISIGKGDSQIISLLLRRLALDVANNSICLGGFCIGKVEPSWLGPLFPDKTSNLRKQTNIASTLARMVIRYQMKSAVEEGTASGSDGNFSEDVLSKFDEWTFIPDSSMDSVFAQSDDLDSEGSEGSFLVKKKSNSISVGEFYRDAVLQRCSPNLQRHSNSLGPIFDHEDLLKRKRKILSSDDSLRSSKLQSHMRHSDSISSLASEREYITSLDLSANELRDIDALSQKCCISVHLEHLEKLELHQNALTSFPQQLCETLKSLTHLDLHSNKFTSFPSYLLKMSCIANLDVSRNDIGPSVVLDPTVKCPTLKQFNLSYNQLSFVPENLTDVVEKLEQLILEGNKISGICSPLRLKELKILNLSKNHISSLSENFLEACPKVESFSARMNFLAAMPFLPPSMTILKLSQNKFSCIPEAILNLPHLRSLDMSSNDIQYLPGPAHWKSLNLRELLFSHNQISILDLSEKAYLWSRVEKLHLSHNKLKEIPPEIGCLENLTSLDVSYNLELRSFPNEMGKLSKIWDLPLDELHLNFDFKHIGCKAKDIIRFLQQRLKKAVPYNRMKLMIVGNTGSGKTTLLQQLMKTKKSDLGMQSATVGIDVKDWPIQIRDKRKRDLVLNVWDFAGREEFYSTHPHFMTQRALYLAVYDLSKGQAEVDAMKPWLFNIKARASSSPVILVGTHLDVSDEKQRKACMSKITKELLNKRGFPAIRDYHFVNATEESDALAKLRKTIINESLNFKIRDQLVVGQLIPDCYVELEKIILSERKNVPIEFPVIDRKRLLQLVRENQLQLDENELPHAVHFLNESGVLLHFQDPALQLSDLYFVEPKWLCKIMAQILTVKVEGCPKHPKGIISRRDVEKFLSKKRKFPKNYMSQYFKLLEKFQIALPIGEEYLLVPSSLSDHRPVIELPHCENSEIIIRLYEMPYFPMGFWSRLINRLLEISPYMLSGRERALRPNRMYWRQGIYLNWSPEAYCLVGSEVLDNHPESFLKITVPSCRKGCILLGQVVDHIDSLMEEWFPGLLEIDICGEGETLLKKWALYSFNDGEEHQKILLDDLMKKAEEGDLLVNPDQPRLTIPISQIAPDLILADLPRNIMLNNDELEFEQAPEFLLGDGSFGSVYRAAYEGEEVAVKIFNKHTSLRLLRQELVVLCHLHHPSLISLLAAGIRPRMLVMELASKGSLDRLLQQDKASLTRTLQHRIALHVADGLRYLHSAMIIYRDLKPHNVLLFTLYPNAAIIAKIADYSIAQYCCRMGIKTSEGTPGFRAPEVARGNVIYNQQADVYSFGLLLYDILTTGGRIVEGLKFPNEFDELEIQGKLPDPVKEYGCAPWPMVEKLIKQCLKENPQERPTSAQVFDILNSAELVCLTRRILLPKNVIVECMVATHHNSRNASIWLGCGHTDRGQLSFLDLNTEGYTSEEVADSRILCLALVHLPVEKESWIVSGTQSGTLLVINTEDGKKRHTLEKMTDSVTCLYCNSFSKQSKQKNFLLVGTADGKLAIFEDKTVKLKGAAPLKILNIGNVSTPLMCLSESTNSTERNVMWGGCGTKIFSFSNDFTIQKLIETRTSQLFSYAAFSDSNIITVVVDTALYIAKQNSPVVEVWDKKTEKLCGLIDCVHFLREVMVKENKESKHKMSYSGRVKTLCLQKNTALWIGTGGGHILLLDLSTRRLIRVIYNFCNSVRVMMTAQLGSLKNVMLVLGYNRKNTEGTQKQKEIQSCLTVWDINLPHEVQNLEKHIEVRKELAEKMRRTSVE
METRIC NAME: log10 of IC50 (log10 of the value in µM)
Base-10 log of IC50, unit µM.

CSc1sc(-c2cc[nH]n2)c2c1C(=O)N[C@H](c1cccnc1)C2 [Example 19] : 0.18
C[C@H]1Cc2c(-c3cc[nH]n3)sc(SCC(=O)O)c2C(=O)N1 [Example 51] : 0.34

Query: Provide measured log10 of IC50 value, entry: CSc1sc(-c2cc[nH]n2)c2c1C(=O)N(CCC1CCCNC1)CC2 (stereo not shown) [Example 73]
Response: 0.77

Query: Read the entry CC1Cc2c(-c3cc[nH]n3)sc(NC3CCCC3)c2C(=O)N1 (stereo not shown) [Example 87] and write its reported log10 of IC50.
Response: -0.49

Query: In one line, give reported log10 of IC50 of the entry CC1CNC(=O)c2c(SC3CCCC3)sc(-c3cc[nH]n3)c21 (stereo not shown) [Example 36] .
Response: -1.28

Query: Query log10 of IC50 for CSc1sc(-c2cc[nH]n2)c2c1C(=O)NCC2 [Example 1]
Response: -0.34

Query: Using the record for CSc1sc(-c2cc[nH]n2)c2c1C(=O)N[C@H](c1cccc(F)c1)C2 [Example 17] , state its measured log10 of IC50.
Response: -1.11

Query: Determine its reported log10 of IC50: CSc1sc(-c2cc[nH]n2)c2c1C(=O)N(C(=O)OC(C)(C)C)C1(CCC1)C2 [Example 6]
Response: 0.49

Query: Report log10 of IC50 for C[C@@H]1Cc2c(-c3cc[nH]n3)sc(SCC(=O)O)c2C(=O)N1 [Example 52]
Response: 0.43

Query: Given the compound O=C1NCCc2c(-c3cc[nH]n3)sc(SCCCO)c21 [Example 38] , write its reported log10 of IC50.
Response: -0.19

Query: Assign log10 of IC50 to the following record: CSc1sc(-c2cc[nH]n2)c2c1C(=O)N(CCCCO)CC2 [Example 60]
Response: 0.23

Query: Give log10 of IC50 for the following compound: CSc1sc(-c2cc[nH]n2)c2c1C(=O)NC1(CCC1)C2 [Example 5]
Response: -0.80

Query: Look up log10 of IC50 of CSc1sc(-c2cc[nH]n2)c2c1C(=O)N(CCN1CCCCC1)CC2 [Example 80] and report it.
Response: 0.89

Query: Dear colleague, please send me the reported log10 of IC50 for CSc1sc(-c2cc[nH]n2)c2c1C(=O)N(Cc1ccncc1)CC2 [Example 72] when you can.
Response: 0.90

Query: Determine its reported log10 of IC50: CSc1sc(-c2cc[nH]n2)c2c1C(=O)N(Cc1cccnc1)CC2 [Example 61]
Response: 0.32

Query: Give log10 of IC50 for CSc1sc(-c2cc[nH]n2)c2c1C(=O)NC(Cc1ccccc1)C2 (stereo not shown) [Example 2]
Response: -0.59

Query: Identify the reported log10 of IC50 for the following entry. CCSc1sc(-c2cc[nH]n2)c2c1C(=O)NCC2 [Example 42]
Response: -0.44

Query: Tell me log10 of IC50 reported for CSc1sc(-c2cc[nH]n2)c2c1C(=O)N(CCCCC#N)CC2 [Example 70]
Response: 0.40

Query: Quote log10 of IC50 reported for CSc1sc(-c2cc[nH]n2)c2c1C(=O)NC1(CCCC1)C2 [Example 8] please.
Response: -0.66

###

molecular target: LRRK2 G2019S mutant kinase (Homo sapiens, UniProt Q5S007, G2019S); construct: GST; assay: LRRK2 G2019S LanthaScreen TR-FRET kinase assay; details: LRRK2 G2019S GST-tagged protein, 75 nM Fluorescein-ERM (LRRKtide), 100 μM ATP, 1 hour at room temperature; read-out: IC50 (potency)
Parameter IC50: see the listing below.
Give the value in µM but do not write µM after it.

Take a look at these entries with their results.
CCCSc1sc(-c2cc[nH]n2)c2c1C(=O)NCC2C (stereo in doubt) [Example 28] : 0.042
O=C1NC(Cc2ccccc2)Cc2c(-c3cc[nH]n3)sc(SC3CCCC3)c21 (centres unmarked) [Example 33] : 0.53
CCN1CCc2c(-c3cc[nH]n3)sc(SC)c2C1=O [Example 76] : 2.2
CSc1sc(-c2cc[nH]n2)c2c1C(=O)N(c1ccc(C)cc1)CC2 [Example 83] : 3.3
O=C1NC2(CCC2)Cc2c(-c3cc[nH]n3)sc(NC3CCCC3)c21 [Example 88] : 0.12
O=C1NCCc2c(-c3cc[nH]n3)sc(SCC3CC3)c21 [Example 26] : 0.3
O=C1NC2(CCC2)Cc2c(-c3cc[nH]n3)sc(SC3CCCC3)c21 [Example 32] : 0.14
CSc1sc(-c2cc[nH]n2)c2c1C(=O)N(CCCC#N)CC2 [Example 59] : 3.7
CSc1sc(-c2cc[nH]n2)c2c1C(=O)N(Cc1cccnc1Cl)CC2 [Example 58] : 3
CSc1sc(-c2cc[nH]n2)c2c1C(=O)NC(C1CC1)C2 (centres unmarked) [Example 13] : 0.45

Query: # return recorded IC50 for input C[C@@H]1Cc2c(-c3cc[nH]n3)sc(NC3CCCC3)c2C(=O)N1 [Example 98]
Response: 0.33

Query: Write down IC50 measured for item CSc1sc(-c2cc[nH]n2)c2c1C(=O)N(CCCCCc1ccccc1)CC2 [Example 74]
Response: 7.5

Query: Note IC50 for the molecule shown: CSc1sc(-c2cc[nH]n2)c2c1C(=O)N(Cc1ccnc3ccccc13)CC2 [Example 56]
Response: 3.7

Query: Given CSc1sc(-c2cc[nH]n2)c2c1C(=O)N(c1cccc(F)c1)CC2 [Example 82] , respond with its IC50.
Response: 4

###

Target: LRRK2 G2019S mutant kinase (Homo sapiens, UniProt Q5S007, G2019S)
Construct: GST
Assay: LRRK2 G2019S LanthaScreen TR-FRET kinase assay
Details: LRRK2 G2019S GST-tagged protein, 75 nM Fluorescein-ERM (LRRKtide), 100 μM ATP, 1 hour at room temperature; read-out: IC50 (potency)
Procedure: The final solvent concentration in the assay was 1% DMSO. […] Generation of raw data and workup of data to derive the IC50 (potency) and maximal inhibition at concentrations tested were performed using Merck's Assay Data Analyzer (ADA) software. The IC50 (potency) was evaluated for the example compounds presented above.
Recorded log10 IC50 values for a group of molecules are listed next.
In our notation, the value equals log10 of IC50 in nM.

Look over these answered cases.
CNc1sc(-c2cc[nH]n2)c2c1C(=O)NCC2 [Example 91] : 3.15
CC(C)CC1Cc2c(-c3cc[nH]n3)sc(SC3CCCC3)c2C(=O)N1 (stereo not shown) [Example 34] : 2.04

Query: Using the record for CNc1sc(-c2cc[nH]n2)c2c1C(=O)N[C@@H](C)C2 [Example 99] , state its measured log10 IC50.
Response: 3.08

Query: Query log10 IC50 for CSc1sc(-c2cc[nH]n2)c2c1C(=O)N(CC1CCCCO1)CC2 (stereo not shown) [Example 63]
Response: 3.92

Query: Specify measured log10 IC50 for O=C1NCCc2c(-c3cc[nH]n3)sc(SC3CCCC3)c21 [Example 30] .
Response: 2.46

Query: Write down log10 IC50 measured for item CSc1sc(-c2cc[nH]n2)c2c1C(=O)NC(C)C2 (stereo not shown) [Example 3]
Response: 2.41

Query: Let me know recorded log10 IC50 for CC(C)Sc1sc(-c2cc[nH]n2)c2c1C(=O)NCC2 [Example 41] , thanks.
Response: 2.66

Query: Report log10 IC50 for NCCSc1sc(-c2cc[nH]n2)c2c1C(=O)NCC2 [Example 40]
Response: 3.67

Query: Give the measured log10 IC50 for CSc1sc(-c2cc[nH]n2)c2c1C(=O)NC[C@@H]2C [Example 21]
Response: 2.20

###

biological target: LRRK2 G2019S mutant kinase (Homo sapiens, UniProt Q5S007, G2019S); construct: GST; test: LRRK2 G2019S LanthaScreen TR-FRET kinase assay; conditions: LRRK2 G2019S GST-tagged protein, 75 nM Fluorescein-ERM (LRRKtide), 100 μM ATP, 1 hour at room temperature; read-out: IC50 (potency)
pIC50: −log10 of the molar value.
Everything with pIC50 lower than 6 is false (0); everything else, including exactly 6, is true (1).

Illustrative cases are given below, each with its answer.
CSc1sc(-c2cc[nH]n2)c2c1C(=O)N[C@H](c1ccc(F)cc1)C2 [Example 18] : true (1)
O=C1NCCc2c(-c3cc[nH]n3)sc(SCCO)c21 [Example 47] : true (1)
CSc1sc(-c2cc[nH]n2)c2c1C(=O)N(Cc1ccc(Br)cn1)CC2 [Example 57] : false (0)
CSc1sc(-c2cc[nH]n2)c2c1C(=O)N(CC1CCCNC1)CC2 (stereo not shown) [Example 65] : false (0)
CNc1sc(-c2cc[nH]n2)c2c1C(=O)NCC2C (stereo not shown) [Example 96] : true (1)
CSc1sc(-c2cc[nH]n2)c2c1C(=O)N[C@H](c1cc(F)cc(F)c1)C2 [Example 16] : true (1)

Query: Hi, just wondering whether CNc1sc(-c2cc[nH]n2)c2c1C(=O)NC(CC(C)C)C2 (stereo not shown) [Example 95] shows pIC50 of 6 or higher.
Response: true (1)

Query: Is reported pIC50 greater than or equal to 6 here: C[C@@H]1Cc2c(-c3cc[nH]n3)sc(SC3(C(=O)O)CCCC3)c2C(=O)N1 [Example 50]
Response: false (0)
